Target: UniProt P06401
Sequence (P06401 whole entry): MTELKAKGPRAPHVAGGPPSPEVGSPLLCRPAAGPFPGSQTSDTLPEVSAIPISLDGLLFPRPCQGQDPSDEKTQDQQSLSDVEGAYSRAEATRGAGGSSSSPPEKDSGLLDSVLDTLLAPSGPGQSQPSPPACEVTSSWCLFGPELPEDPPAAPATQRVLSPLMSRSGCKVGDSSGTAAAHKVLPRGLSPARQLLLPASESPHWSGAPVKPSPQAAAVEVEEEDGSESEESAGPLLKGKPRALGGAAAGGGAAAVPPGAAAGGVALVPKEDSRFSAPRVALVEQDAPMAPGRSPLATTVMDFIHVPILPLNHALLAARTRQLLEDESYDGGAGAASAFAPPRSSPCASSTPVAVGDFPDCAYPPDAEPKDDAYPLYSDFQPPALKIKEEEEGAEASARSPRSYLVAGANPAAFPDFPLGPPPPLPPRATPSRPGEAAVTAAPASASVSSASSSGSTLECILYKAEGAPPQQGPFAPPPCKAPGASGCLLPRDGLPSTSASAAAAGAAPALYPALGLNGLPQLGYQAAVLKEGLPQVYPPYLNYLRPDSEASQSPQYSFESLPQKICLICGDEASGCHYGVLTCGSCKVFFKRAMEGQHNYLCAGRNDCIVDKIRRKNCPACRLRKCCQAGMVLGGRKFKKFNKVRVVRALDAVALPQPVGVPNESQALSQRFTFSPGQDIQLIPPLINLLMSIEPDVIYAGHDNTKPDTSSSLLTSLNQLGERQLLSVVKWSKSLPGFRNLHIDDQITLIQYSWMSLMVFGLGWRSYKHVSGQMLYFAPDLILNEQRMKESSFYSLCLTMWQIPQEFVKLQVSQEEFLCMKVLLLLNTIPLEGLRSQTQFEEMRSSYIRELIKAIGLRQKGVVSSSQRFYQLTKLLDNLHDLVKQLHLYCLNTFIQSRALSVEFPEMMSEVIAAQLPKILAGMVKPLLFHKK
pIC50: −log10 of the molar value.
Ok so here's the combined literature set: pIC50 for UniProt P06401.

Below, 5 molecules whose answers are already recorded.
molecule	pIC50
C=CCSCC1=CC(C)(C)Nc2ccc(-c3ccccc3-c3ccccc3)cc21	< 5.70
CCC(Cc1cc(Cl)cc(Cl)c1)NS(=O)(=O)c1c(C)cc(C)cc1C (centres undefined)	5.92
Nc1ccc(-c2c(C(=O)c3ccc(OCCN4CC(C(=O)O)=CCC4=O)cc3)c3ccc(O)cc3oc2=O)cc1	< 7.00
O=C1COc2ccc(C3=Nn4cnnc4SC3c3ccc(F)cc3)cc2N1 (centres undefined)	< 5.00
Cc1cc(-c2ccc3c(c2)NC(=O)CO3)n(-c2ccccc2)n1	< 5.00

What value of pIC50 on UniProt P06401 does COc1ccccc1-c1ccc2c(c1)C(CSC(C)=O)=CC(C)(C)N2 have?
6.21

Param readout = pIC50; param system = UniProt P06401; param query = O=S(=O)(Nc1ccc(-c2ccc3c(cnn3-c3ccc(F)cc3)c2)c(C(F)(F)F)c1)c1cccc(C(F)(F)F)c1 ; response: value
< 5.00

Which pIC50 is reported with UniProt P06401 for this entry: C[C@H]1C[C@H]2[C@@H]3CCC4=CC(=O)C=C[C@]4(C)[C@@]3(F)[C@@H](O)C[C@]2(C)[C@@]1(OC(=O)NC(C)(C)CC(C)(C)C)C(=O)CO ?
< 6.00

UniProt P06401 / pIC50 / CCC(Cc1cccc(C)c1C)NS(=O)(=O)c1c(C)cc(C)cc1C (centres undefined) : value?
5.70
